Values from the supplement of paper PMC5844555

- Test system: MYB
- Measurement Description: 3' UTR reporter interaction score (median-centred robust z-score of log2 firefly/Renilla activity); higher = less repression of the 3' UTR reporter
- Experimental Parameters: HEK293T; 48 h
In this section we review reported 3' UTR reporter interaction score values for a set of sequences.

Record Sequence | 3' UTR reporter interaction score
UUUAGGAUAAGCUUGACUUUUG | 0.0477
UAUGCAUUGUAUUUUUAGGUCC | -1.29
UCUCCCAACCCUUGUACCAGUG | -6.53
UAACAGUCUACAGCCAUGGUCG | 0.1
UAGGUAGUUUCAUGUUGUUGG | -1.52
UCCGAGCCUGGGUCUCCCUCU | -0.402
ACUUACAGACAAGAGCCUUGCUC | -2.25
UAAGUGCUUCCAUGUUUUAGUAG | -0.833
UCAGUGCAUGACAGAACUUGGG | -1.5
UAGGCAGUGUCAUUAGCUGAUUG | -2.78
AAAGUGCUUCCUUUUAGAGGGUU | -0.903
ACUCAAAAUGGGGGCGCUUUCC | -0.497
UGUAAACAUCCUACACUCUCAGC | 0.661
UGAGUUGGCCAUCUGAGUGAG | 0.927
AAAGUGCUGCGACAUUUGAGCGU | -1.18
UGUGCUUGCUCGUCCCGCCCGCAG | -0.522
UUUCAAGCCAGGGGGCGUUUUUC | 0.555
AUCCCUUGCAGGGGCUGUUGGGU | 0.681
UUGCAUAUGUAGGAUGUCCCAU | -1.75
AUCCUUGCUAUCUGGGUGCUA | 0.799
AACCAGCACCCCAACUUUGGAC | -1.09
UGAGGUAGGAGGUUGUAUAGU | 0.624
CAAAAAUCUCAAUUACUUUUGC | -1.38
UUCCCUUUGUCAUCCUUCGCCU | 0.781
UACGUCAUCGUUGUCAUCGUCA | -0.203
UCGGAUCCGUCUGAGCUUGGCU | -4.97
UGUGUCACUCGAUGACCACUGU | -0.364
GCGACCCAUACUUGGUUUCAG | 0.445
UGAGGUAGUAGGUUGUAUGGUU | 0.761
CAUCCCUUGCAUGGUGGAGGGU | 0.193
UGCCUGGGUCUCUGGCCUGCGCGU | 0.325
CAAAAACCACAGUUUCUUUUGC | -1.54

---

- System: ZEB2
- Measurement Description: 3' UTR reporter interaction score (median-centred robust z-score of log2 firefly/Renilla activity); higher = less repression of the 3' UTR reporter
- Experimental Parameters: HEK293T; 48 h
Binary call on 3' UTR reporter interaction score: Yes from -0.5 upward, No beneath that.

Record Sequence | Study Target | Assigned Class
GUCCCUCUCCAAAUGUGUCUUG | ZEB2 | No
UUGGUCCCCUUCAACCAGCUGU | ZEB2 | Yes
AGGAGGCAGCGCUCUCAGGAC | ZEB2 | Yes
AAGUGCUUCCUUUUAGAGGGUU | ZEB2 | Yes
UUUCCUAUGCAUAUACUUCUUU | ZEB2 | Yes
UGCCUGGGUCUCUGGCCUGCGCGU | ZEB2 | Yes
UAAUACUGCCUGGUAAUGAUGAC | ZEB2 | No
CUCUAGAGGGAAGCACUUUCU | ZEB2 | Yes
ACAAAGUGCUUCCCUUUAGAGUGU | ZEB2 | Yes
UAUUGCACAUUACUAAGUUGC | ZEB2 | Yes
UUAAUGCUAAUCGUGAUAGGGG | ZEB2 | No
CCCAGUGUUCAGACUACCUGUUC | ZEB2 | No
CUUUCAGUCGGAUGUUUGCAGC | ZEB2 | Yes
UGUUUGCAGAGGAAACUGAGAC | ZEB2 | No
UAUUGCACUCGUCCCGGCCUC | ZEB2 | No
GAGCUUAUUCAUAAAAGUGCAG | ZEB2 | No
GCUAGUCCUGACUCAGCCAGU | ZEB2 | Yes
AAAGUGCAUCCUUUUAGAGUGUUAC | ZEB2 | Yes
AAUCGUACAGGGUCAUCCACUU | ZEB2 | Yes
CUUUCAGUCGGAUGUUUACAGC | ZEB2 | Yes
GAAGGCGCUUCCCUUUAGAGC | ZEB2 | Yes
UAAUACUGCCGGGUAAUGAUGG | ZEB2 | No

---

- System: MYB
- Measurement Description: 3' UTR reporter interaction score (median-centred robust z-score of log2 firefly/Renilla activity); higher = less repression of the 3' UTR reporter
- Experimental Parameters: HEK293T; 48 h
Assay Endpoint: 3' UTR reporter interaction score

Record Sequence | Study Target | Assay Endpoint | Result
CUGGACUUGGAGUCAGAAGGCC | MYB | 3' UTR reporter interaction score | 1.36
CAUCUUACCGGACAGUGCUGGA | MYB | 3' UTR reporter interaction score | -1.55
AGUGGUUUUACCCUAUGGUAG | MYB | 3' UTR reporter interaction score | 2.26
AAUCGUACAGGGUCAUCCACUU | MYB | 3' UTR reporter interaction score | 0.179
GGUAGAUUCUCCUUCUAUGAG | MYB | 3' UTR reporter interaction score | 0.783
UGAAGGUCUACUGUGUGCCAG | MYB | 3' UTR reporter interaction score | 0.992
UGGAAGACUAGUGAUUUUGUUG | MYB | 3' UTR reporter interaction score | 0.454
UGGUAGACUAUGGAACGUA | MYB | 3' UTR reporter interaction score | 0.96
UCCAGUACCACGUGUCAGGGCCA | MYB | 3' UTR reporter interaction score | 0.593
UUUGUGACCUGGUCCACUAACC | MYB | 3' UTR reporter interaction score | 0.254
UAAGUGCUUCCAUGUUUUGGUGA | MYB | 3' UTR reporter interaction score | -1.01
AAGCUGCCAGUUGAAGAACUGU | MYB | 3' UTR reporter interaction score | 0.23
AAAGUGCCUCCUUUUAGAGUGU | MYB | 3' UTR reporter interaction score | -0.416
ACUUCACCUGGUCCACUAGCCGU | MYB | 3' UTR reporter interaction score | 0.743
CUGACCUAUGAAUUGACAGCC | MYB | 3' UTR reporter interaction score | 0.682

---

In this section we review reported 3' UTR reporter interaction score values for a set of sequences.
- Tested on: HRAS
- Measurement Description: 3' UTR reporter interaction score (median-centred robust z-score of log2 firefly/Renilla activity); higher = less repression of the 3' UTR reporter
- Experimental Parameters: HEK293T; 48 h
Assay Endpoint: 3' UTR reporter interaction score

Record Sequence | Numeric Result
UGAUUGGUACGUCUGUGGGUAGA | 0.535
AUUCUGCAUUUUUAGCAAGU | 0.548
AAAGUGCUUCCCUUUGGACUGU | 0.194
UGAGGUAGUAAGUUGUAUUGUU | 0.519
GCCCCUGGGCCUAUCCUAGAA | -0.133
CAAGUCACUAGUGGUUCCGUUUA | -1.48
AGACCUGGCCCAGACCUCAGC | -0.381
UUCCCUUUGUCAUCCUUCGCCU | -0.327
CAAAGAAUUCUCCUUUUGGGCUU | 0.0982
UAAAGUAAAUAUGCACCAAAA | 0.372
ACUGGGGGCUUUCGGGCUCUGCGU | -0.439
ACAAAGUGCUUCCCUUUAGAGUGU | 0.36
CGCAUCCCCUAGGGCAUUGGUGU | 1.06
UGAGCUGCUGUACCAAAAU | -0.0544
UGGAAUGUAAAGAAGUAUGUA | 1.1
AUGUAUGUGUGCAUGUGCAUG | 0.472
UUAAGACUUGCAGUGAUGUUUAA | 0.424
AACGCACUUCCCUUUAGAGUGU | -0.716
AGCUGUCUGAAAAUGUCUU | -0.208
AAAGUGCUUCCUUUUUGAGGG | -0.00896
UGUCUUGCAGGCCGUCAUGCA | 1.07
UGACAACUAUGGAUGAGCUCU | -0.056
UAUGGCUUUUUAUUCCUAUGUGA | -0.268
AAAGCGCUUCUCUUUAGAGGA | 0.681
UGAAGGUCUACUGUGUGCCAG | -0.000203
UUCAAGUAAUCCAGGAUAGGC | -0.41
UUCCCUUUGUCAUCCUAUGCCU | -0.0998
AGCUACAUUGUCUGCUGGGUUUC | 0.0503
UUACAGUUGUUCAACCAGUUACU | 0.218
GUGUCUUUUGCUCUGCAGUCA | 2.01
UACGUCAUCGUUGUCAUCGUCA | 0.167
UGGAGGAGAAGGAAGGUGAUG | -0.351
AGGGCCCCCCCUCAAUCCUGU | -0.753
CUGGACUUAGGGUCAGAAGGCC | 0.067
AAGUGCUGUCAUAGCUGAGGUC | 0
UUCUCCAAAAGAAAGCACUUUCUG | 0.348
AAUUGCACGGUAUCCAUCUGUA | 0.777
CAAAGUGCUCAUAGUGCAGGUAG | 0.757
UACAGUAUAGAUGAUGUACUAG | -0.991
UCACUCCUCUCCUCCCGUCUUCU | -0.435
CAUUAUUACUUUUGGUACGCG | 0.225
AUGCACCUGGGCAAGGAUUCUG | 0.134
UAUGGCACUGGUAGAAUUCACUG | -0.187
UGUCACUCGGCUCGGCCCACUAC | -0.561
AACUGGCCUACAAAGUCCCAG | 1.01
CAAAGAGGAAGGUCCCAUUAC | 0.586
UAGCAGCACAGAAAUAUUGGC | -1.27
UGCUUCCUUUCAGAGGGU | -0.697
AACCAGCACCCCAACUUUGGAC | 0.0381
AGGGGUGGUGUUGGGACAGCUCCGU | -1.12
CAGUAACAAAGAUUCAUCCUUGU | 0.555
UCCGUCUCAGUUACUUUAUAGCC | -0.357
AGCUGGUGUUGUGAAUC | -0.334
GUGCAUUGCUGUUGCAUUGCA | -0.237
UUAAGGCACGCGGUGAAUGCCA | 0.364
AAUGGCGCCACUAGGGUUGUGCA | -0.363
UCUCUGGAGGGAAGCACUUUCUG | -0.075
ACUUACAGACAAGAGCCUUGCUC | 1.57
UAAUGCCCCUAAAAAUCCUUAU | -0.275
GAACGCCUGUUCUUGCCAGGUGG | 0.54
UGGUAGACUAUGGAACGUA | -0.461
UGGAGAGAAAGGCAGUUC | -0.0201
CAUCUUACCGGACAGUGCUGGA | 0.319
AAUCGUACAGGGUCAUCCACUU | 0.0979
ACUCAAAACCCUUCAGUGACUU | -0.68
